Measured remaining activity at 1 µM values are reported for all entries that follow.
Molecular target: ERK2 (Homo sapiens, UniProt P28482)
Sequence (P28482 whole entry): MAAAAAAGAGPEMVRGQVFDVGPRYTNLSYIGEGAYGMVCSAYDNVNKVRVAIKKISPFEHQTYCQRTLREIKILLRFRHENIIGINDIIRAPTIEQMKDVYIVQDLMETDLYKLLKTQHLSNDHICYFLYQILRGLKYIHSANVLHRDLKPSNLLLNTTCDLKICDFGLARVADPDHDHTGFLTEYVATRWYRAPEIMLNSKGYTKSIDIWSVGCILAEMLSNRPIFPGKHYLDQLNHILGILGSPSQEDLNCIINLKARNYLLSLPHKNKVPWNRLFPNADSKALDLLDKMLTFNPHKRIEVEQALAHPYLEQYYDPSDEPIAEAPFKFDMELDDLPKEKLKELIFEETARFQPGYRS
Assay: Kinase profiling (radiometric filter-binding)
Type: biochemical
Conditions: ERK2, 1 µM inhibitor; read-out: Residual activity, %
Square brackets hold non-standard residues; d marks the D form. Peptide text beside a SMILES is read from it. * marks the point of attachment. X3 = O=C(CCCCCNCc1nc2c(sc3cc(Br)cnc32)c(=O)[nH]1)*
Entry rule: numbers only, all in %.

Solved cases (2 shown):
| compound | measure.unit | remaining activity at 1 µM |
| --- | --- | --- |
| N=C(N)NCCC[C@@H](NC(=O)CNC(=O)[C@@H](CCCNC(=N)N)NC(=O)[C@@H](CCCNC(=N)N)NC(=O)CCCCCCCNCc1nc2c(sc3ccc(Br)cc32)c(=O)[nH]1)C(=O)N[C@H](CCCCN)C(N)=O | % | 102 |
| N=C(N)NCCC[C@@H](NC(=O)CCCCCNCc1nc2c(sc3cc(Br)cnc32)c(=O)[nH]1)C(=O)N[C@H](CCCNC(=N)N)C(=O)N[C@H](CCCNC(=N)N)C(=O)N[C@H](CCCNC(=N)N)C(=O)N[C@H](CCCNC(=N)N)C(=O)N[C@H](CCCNC(=N)N)C(=O)N[C@H](CCCCN)C(N)=O [ARC-3126, BPTP-Ahx-(D-Arg)6-D-Lys-NH2] (X3-[dR][dR][dR][dR][dR][dR][dK]-NH2) | % | 166 |

Consider now this further compound.
Query: Given the entry `N=C(N)NCCC[C@@H](NC(=O)CNC(=O)[C@@H](CCCNC(=N)N)NC(=O)[C@@H](CCCNC(=N)N)NC(=O)CCCCCCCNCc1nc2c(sc3cc(Br)cnc32)c(=O)[nH]1)C(=O)N[C@H](CCCCN)C(N)=O` , report its measured remaining activity at 1 µM.
Response: 101

###

Biological target: ULK2 (Homo sapiens, UniProt Q8IYT8)
Sequence (Q8IYT8 1-1036): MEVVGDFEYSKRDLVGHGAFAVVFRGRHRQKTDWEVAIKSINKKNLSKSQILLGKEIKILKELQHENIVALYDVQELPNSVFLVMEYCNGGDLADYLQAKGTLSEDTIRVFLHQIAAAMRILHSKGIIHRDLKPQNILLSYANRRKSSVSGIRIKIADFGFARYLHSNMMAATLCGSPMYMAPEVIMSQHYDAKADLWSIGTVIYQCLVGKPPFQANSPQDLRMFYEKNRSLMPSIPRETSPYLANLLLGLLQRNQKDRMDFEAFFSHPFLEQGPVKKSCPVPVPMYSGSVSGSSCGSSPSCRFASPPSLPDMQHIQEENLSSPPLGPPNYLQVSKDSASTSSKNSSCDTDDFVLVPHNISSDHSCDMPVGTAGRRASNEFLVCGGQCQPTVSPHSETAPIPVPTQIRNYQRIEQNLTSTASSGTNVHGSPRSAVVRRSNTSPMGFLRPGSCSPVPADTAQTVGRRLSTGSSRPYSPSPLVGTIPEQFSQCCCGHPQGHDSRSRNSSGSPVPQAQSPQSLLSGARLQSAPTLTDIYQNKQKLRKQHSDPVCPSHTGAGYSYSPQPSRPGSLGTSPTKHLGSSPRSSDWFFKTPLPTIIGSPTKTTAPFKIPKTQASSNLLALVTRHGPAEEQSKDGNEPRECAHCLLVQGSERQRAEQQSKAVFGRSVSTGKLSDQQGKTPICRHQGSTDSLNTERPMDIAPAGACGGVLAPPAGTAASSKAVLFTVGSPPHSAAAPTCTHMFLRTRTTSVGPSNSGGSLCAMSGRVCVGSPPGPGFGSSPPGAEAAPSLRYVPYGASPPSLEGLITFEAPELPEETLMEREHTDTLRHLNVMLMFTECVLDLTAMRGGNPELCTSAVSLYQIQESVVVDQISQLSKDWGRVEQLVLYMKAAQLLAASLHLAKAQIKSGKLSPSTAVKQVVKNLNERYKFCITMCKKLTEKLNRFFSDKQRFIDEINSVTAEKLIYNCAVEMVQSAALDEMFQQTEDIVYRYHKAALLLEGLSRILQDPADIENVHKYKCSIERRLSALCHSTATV
Assay: Kinase profiling (radiometric filter-binding)
Type: biochemical
Settings: ULK2, 1 µM inhibitor; read-out: Residual activity, %
Square brackets hold non-standard residues; d marks the D form. Peptide text beside a SMILES is read from it. * marks the point of attachment. X3 = O=C(CCCCCNCc1nc2c(sc3cc(Br)cnc32)c(=O)[nH]1)*
readout.name: remaining activity at 1 µM
Record the result as number plus unit.

Solved cases (2 shown):
| compound | observed |
| --- | --- |
| N=C(N)NCCC[C@@H](NC(=O)CCCCCNC(=O)Cn1cnc2c(I)c(I)c(I)c(I)c21)C(=O)N[C@H](CCCNC(=N)N)C(=O)N[C@H](CCCNC(=N)N)C(=O)N[C@H](CCCNC(=N)N)C(=O)N[C@H](CCCNC(=N)N)C(=O)N[C@H](CCCNC(=N)N)C(=O)N[C@H](CCCCN)C(N)=O | 34% |
| N=C(N)NCCC[C@@H](NC(=O)CNC(=O)[C@@H](CCCNC(=N)N)NC(=O)[C@@H](CCCNC(=N)N)NC(=O)CCCCCCCNCc1nc2c(sc3ccc(Br)cc32)c(=O)[nH]1)C(=O)N[C@H](CCCCN)C(N)=O | 127% |

Query: Given the entry `N=C(N)NCCC[C@@H](NC(=O)CNC(=O)[C@@H](CCCNC(=N)N)NC(=O)[C@@H](CCCNC(=N)N)NC(=O)CCCCCCCNCc1nc2c(sc3cc(Br)cnc32)c(=O)[nH]1)C(=O)N[C@H](CCCCN)C(N)=O` , report its measured remaining activity at 1 µM.
Response: 115%

Query: Given the entry N=C(N)NCCC[C@@H](NC(=O)CCCCCNCc1nc2c(sc3cc(Br)cnc32)c(=O)[nH]1)C(=O)N[C@H](CCCNC(=N)N)C(=O)N[C@H](CCCNC(=N)N)C(=O)N[C@H](CCCNC(=N)N)C(=O)N[C@H](CCCNC(=N)N)C(=O)N[C@H](CCCNC(=N)N)C(=O)N[C@H](CCCCN)C(N)=O [ARC-3126, BPTP-Ahx-(D-Arg)6-D-Lys-NH2] (X3-[dR][dR][dR][dR][dR][dR][dK]-NH2) , report its measured remaining activity at 1 µM.
Response: 104%

Query: Given the entry `N=C(N)NCCC[C@@H](NC(=O)CNC(=O)[C@@H](CCCNC(=N)N)NC(=O)[C@@H](CCCNC(=N)N)NC(=O)Cn1cc(CNCc2nc3c(sc4ccc(Br)cc43)c(=O)[nH]2)nn1)C(=O)N[C@H](CCCCN)C(N)=O` , report its measured remaining activity at 1 µM.
Response: 104%
